Experiment: ATG_PXRE_CIS: Attagene CIS-FACTORIAL HepG2 Assay for human Pregnane X Receptor Element (PXRE) (AID 2282957)
Conditions: HepG2 Attagene CIS-FACTORIAL PXRE reporter, mRNA; actives raise or lower the signal
The source made the active and inactive calls. How the source made its calls: active means hit-call score of the fitted dose curve at least 0.9, where 1 is the maximum; inactive means score below 0.9.
Possible outcomes: active, inactive

- CS(C)(=O)=O: active
- CCCCCCOC(=O)c1ccccc1O: active
- [Co]: active
- O=C(C=Cc1ccccc1)OCC=Cc1ccccc1: active
- FC(F)(F)C(F)(F)C(F)(F)C(F)(F)CCI: inactive
- FC(F)(F)C(F)(F)C(F)(F)C(F)(F)C(F)(F)C(F)(F)C(F)(F)C(F)(F)F: inactive
- FC(F)(F)C(F)(F)C(F)(F)CI: inactive
- FC(F)(F)C(F)(F)C(F)(F)C(F)(F)C(F)(F)C(F)(F)C(F)(F)Br: inactive
- CCCCC(CC)COP(=O)(O)OCC(CC)CCCC (configuration not stated): active
- CC/C=C\CCOC(C)=O: active
- COC(OC(C)=O)c1ccccc1 (configuration not stated): inactive
- CC(Cc1ccc(O)c(O)c1)C(C)Cc1ccc(O)c(O)c1 (configuration not stated): active
- CCc1ccc(C(c2ccc(CC)cc2)C(Cl)Cl)cc1: active
- C=CC/C=C/C/C=C/C/C=C/C: inactive
- COC(=O)C1CCC(C(=O)OC)CC1 (configuration not stated): inactive
- C(=C(c1ccccc1)c1ccccc1)c1ccccc1: active
- C=C(C)C(=O)OCC(F)(F)C(F)(F)C(F)(F)C(F)(F)C(F)(F)C(F)(F)C(F)(F)F: inactive
- OCCCC(F)(F)C(F)(F)C(F)(F)F: inactive
- FC(F)(F)C(F)(F)C(F)(F)C(F)(F)C(F)(F)C(F)(F)C(F)(F)I: inactive
- C=C(C)C(=O)OCCC(F)(F)C(F)(F)C(F)(F)C(F)(F)C(F)(C(F)(F)F)C(F)(F)F: inactive
- CCCCCCS: inactive
- OCC(F)(F)C(F)(F)C(F)(F)C(F)(F)C(F)(F)C(F)(F)F: active
- O=C(O)C(F)(F)C(F)(F)OC(F)(F)F: inactive
- Nc1ccc(Oc2cccc(Oc3ccc(N)cc3)c2)cc1: active
- FC(F)(F)C(F)(F)C(F)(F)C(F)(F)C(F)(F)C(F)(F)CC1CO1 (configuration not stated): inactive
- CCCCOc1ccc(N)cc1: inactive
- CCCCCCCCC(F)(F)C(F)(F)C(F)(F)C(F)(F)C(F)(F)C(F)(F)F: inactive
- O=P(O)(O)OCCC(F)(F)C(F)(F)C(F)(F)C(F)(F)C(F)(F)C(F)(F)F: inactive
- O=C(OCCOCCOCCOC(=O)c1ccccc1)c1ccccc1: inactive
- O=C(O)C(F)(F)C(F)(F)C(F)(F)C(F)(F)F: inactive
- FC(F)(F)C(F)(F)C(F)(F)C(F)(F)C(F)(F)C(F)(F)CCS: inactive
- CC(C)(C)C(=O)CC(=O)C(F)(F)C(F)(F)C(F)(F)F: inactive
- O=C(O)C(F)(F)C(F)(F)C(F)(F)C(F)(F)C(F)(F)C(F)(F)C(F)(F)C(F)(F)C(F)(F)C(F)F: active
- Nc1cc(Cl)c(N)c(Cl)c1: active
- CC/C=C\CCOC(=O)c1ccccc1: inactive
- O=C(O)C=C(C(F)(F)F)C(F)(F)F: inactive
- O=C(O)C(F)(F)C(F)(F)C(F)(F)F: inactive
- C=CC(F)(F)C(F)(F)C(F)(F)C(F)(F)C(F)(F)C(F)(F)C(F)(F)C(F)(F)C=C: inactive
- FC(F)(I)C(F)(F)C(F)(F)C(F)(F)I: inactive
- CO[Si](OC)(c1ccccc1)c1ccccc1: active
- FC(F)(F)C(F)(F)C(F)(F)C(F)(F)C(F)(F)C(F)(F)C(F)(F)C(F)(F)CCS: inactive
- C#C[C@]1(O)CC[C@H]2[C@@H]3CCc4cc(OC)ccc4[C@H]3CC[C@@]21C: active
- O=S(=O)(OCC(F)F)C(F)(F)F: inactive
- Cc1cccc(N(C)C)c1: inactive
- CC(C)(C)c1ccc(OC2CCCCC2O)cc1 (configuration not stated): active
- CC(=O)Nc1ccc(N=Nc2cc(C)ccc2O)cc1: active
- CC(C)c1ccccc1N: active

----------
Assay: BSK_CASM3C_Proliferation: Cell Proliferation Assessment in the BioMAP Diversity Plus: CASM3C Assay (AID 2283047);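 further: sulforhodamine B total protein stain as relative cell number at 560 nm; sub-confluent cells exposed 48 h before staining; fitted both ways against DMSO so gain or loss of cell number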
Conditions: primary human coronary artery smooth muscle cells
Activity calls are given as the source filed them. Rule for the calls: active = hit-call score of the fitted dose curve at least 0.9, where 1 is the maximum; inactive = score below 0.9.
Possible outcomes: true (1) (active), false (0) (inactive)

* O[Si](c1ccccc1)(c1ccccc1)c1ccccc1 | true (1)
* CCCCCCC(C)OC(=O)CCCCC(=O)OC(C)CCCCCC (stereo not drawn) | false (0)
* O=C(Cl)C(F)(F)C(F)(F)C(F)(F)C(F)(F)C(F)(F)C(F)(F)C(F)(F)C(F)(F)F | false (0)
* O=C(O)C(F)(OC(F)(F)C(F)(OC(F)(F)C(F)(F)C(F)(F)F)C(F)(F)F)C(F)(F)F (stereo not drawn) | false (0)
* OCC(F)(F)C(F)(F)C(F)(F)C(F)F | false (0)
* O=C(O)C(F)(F)C(F)(F)OC(F)(F)F | false (0)
* C#C[C@]1(O)CC[C@H]2[C@@H]3CCc4cc(OC)ccc4[C@H]3CC[C@@]21C | true (1)
* CS(C)(=O)=O | false (0)
* O=C(O)C(F)(F)C(F)(F)C(F)(F)C(F)(F)C(F)(F)C(F)(F)C(F)(F)C(F)(F)C(F)(F)C(F)(F)C(F)(F)C(F)(F)F | false (0)
* O=C(O)C(F)(F)C(F)(F)C(F)(F)C(F)(F)C(F)(F)C(F)(F)C(F)(F)C(F)(F)C(F)(F)C(F)F | false (0)
* C=C(C)C(=O)OCC(F)(F)C(F)(F)C(F)(F)F | false (0)
* O=C(O)C(F)(F)C(F)(F)C(F)(F)C(F)(F)C(F)(F)C(F)(F)C(F)(F)C(F)(F)C(F)(F)C(F)(F)C(F)(F)C(F)(F)C(F)(F)F | false (0)
* CCc1c(Br)c(Br)c(Br)c(Br)c1Br | false (0)
* O=C(O)C(F)(F)C(F)(F)C(F)(F)F | false (0)
* O=C(O)C=C(C(F)(F)F)C(F)(F)F | true (1)
* C=CC/C=C/C/C=C/C/C=C/C | true (1)
* Nc1ccc([N+](=O)[O-])cc1O | false (0)
* C=C(C)C(=O)OCCC(F)(F)C(F)(F)C(F)(F)C(F)(F)C(F)(C(F)(F)F)C(F)(F)F | false (0)
* CCCCCCCOC(=O)c1ccccc1C(=O)OCCCCCCC | false (0)
* CCCCC(CC)COP(=O)(O)OCC(CC)CCCC (stereo not drawn) | false (0)
* CC(CCl)OP(=O)(OC(C)CCl)OC(C)CCl (stereo not drawn) | false (0)
* OCCCC(F)(F)C(F)(F)C(F)(F)F | false (0)
* C=CC(F)(F)C(F)(F)C(F)(F)C(F)(F)C(F)(F)C(F)(F)C(F)(F)C(F)(F)F | false (0)

----------
Read-out: Interferon-gamma inducible Protein 10 (IP10), CXCL10 (gene 3627)
Test: BSK_BE3C_IP10: BioMAP Diversity Plus: BE3C Assay for Interferon-gamma inducible Protein 10 (IP10) Biomarker Activity (AID 2283034)
Settings: primary human bronchial epithelial cells; actives raise or lower the signal
Active and inactive are the calls of the source. The calls were made as follows: active = hit-call score of the fitted dose curve at least 0.9, where 1 is the maximum; inactive = score below 0.9.
Possible outcomes: active, inactive

- O=P(O)(O)OCCC(F)(F)C(F)(F)C(F)(F)C(F)(F)C(F)(F)C(F)(F)F: inactive
- OCC(F)(F)C(F)(F)C(F)(F)F: inactive
- CO[Si](OC)(c1ccccc1)c1ccccc1: active
- C=CC(F)(F)C(F)(F)C(F)(F)C(F)(F)C(F)(F)C(F)(F)C(F)(F)C(F)(F)C=C: inactive
- Oc1ccc(Nc2ccccc2)cc1: active
- O=C(O)C(F)(F)C(F)(F)C(F)(F)C(F)(F)C(F)(F)C(F)(F)C(F)(F)C(F)(F)C(F)(F)C(F)(F)C(F)(F)C(F)(F)C(F)(F)F: inactive
- O=C(O)C(F)(F)C(F)(F)OC(F)(F)F: inactive
- OCCCC(F)(F)C(F)(F)C(F)(F)F: inactive
- FC(F)(F)C(F)(F)C(F)(F)C(F)(F)CCI: inactive
- CCN(CC)c1ccc2c(C)cc(=O)oc2c1: inactive
- Nc1ccc([N+](=O)[O-])cc1O: inactive

----------
Read-out: Vascular cell adhesion molecule 1 (VCAM1), VCAM1 (gene 7412)
Assay: BSK_MyoF_VCAM1: BioMAP Diversity Plus: MyoF Assay for Vascular cell adhesion molecule 1 (VCAM1) Biomarker Activity (AID 2284231)
Details: primary human lung fibroblasts
The source made the active and inactive calls. How the source made its calls: active means hit-call score of the fitted dose curve at least 0.9, where 1 is the maximum; inactive means score below 0.9.
Possible outcomes: active, inactive

• Cc1ccc(S(=O)(=O)OCC(F)(F)C(F)(F)C(F)(F)C(F)(F)C(F)(F)C(F)F)cc1 = inactive
• CCc1ccc(C(c2ccc(CC)cc2)C(Cl)Cl)cc1 = active
• FC(F)(F)C(F)(F)C(F)(F)N(C(F)(F)C(F)(F)C(F)(F)F)C(F)(F)C(F)(F)C(F)(F)F = inactive
• CS(C)(=O)=O = inactive
• O=C(O)C(F)(F)C(F)(F)OC(F)(F)F = inactive
• OCC(F)(F)C(F)(F)C(F)(F)C(F)(F)C(F)(F)C(F)F = inactive

Where these numbers come from: PubChem BioAssay (EPA / NIEHS)
